- subject.of.test: Par3 PDZ3 (rat, UniProt Q9Z340 582-685)
- Sequence (Q9Z340 582-685): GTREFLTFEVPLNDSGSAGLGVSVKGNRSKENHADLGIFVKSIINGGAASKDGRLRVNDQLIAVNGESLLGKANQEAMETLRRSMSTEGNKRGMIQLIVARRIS
- experiment.summary: FP; 0% 1,6-hexanediol
Ends that are not written are not given here.
metric.name: Kd (nM)
Provide the reading as a plain figure in nM.

[Q] Item under review: LEEDGTIITL (also: FITC label, position not given here) [FITC-labeled Par6β PBM peptide] . Reported Kd?
[A] 1100

Data origin, for the record: paper PMC7211019
